// data source = paper PMC5384962

assay: Study-1 Part-B multiple ascending dose pharmacokinetics (plasma and urine); assay type: in vivo, human; settings: human, plasma, oral, 8 mg, Study-1 Part-B, 8 mg, Day 1; median (range); read-out: tmax
readout.label: Tmax (h)
Answer with a number only, understood to be in h.

## Task Could you share which Tmax value was measured for [O-][n+]1cccc(-c2nc3c(Cl)cccc3cc2[C@@H](Nc2ncnc3cccnc23)C(F)(F)F)c1 [Seletalisib, seletalisib] ?
## Result 4

* * *

experiment: Study-2 single-dose pharmacokinetics (plasma); format: in vivo, human; conditions: human, plasma, oral; Study-2, range across dose groups; read-out: geometric mean t1/2
readout.label: half-life

## Task May I ask what half-life has been recorded for [O-][n+]1cccc(-c2nc3c(Cl)cccc3cc2[C@@H](Nc2ncnc3cccnc23)C(F)(F)F)c1 ?
## Result 18.1 to 22.4 h

* * *

test: Study-1 Part-A single ascending dose pharmacokinetics (plasma and urine); format: in vivo, human; conditions: human, plasma, oral, Study-1, range across dose groups; read-out: geometric mean t1/2
readout.label: half-life

## Task Which measured half-life value corresponds to [O-][n+]1cccc(-c2nc3c(Cl)cccc3cc2[C@@H](Nc2ncnc3cccnc23)C(F)(F)F)c1 ?
## Result 1060 to 1270 min

* * *

assay: Study-1 Part-A single ascending dose pharmacokinetics (plasma and urine); type: in vivo, human; conditions: human, plasma, oral, 5 mg, Study-1 Part-A, single dose 5 mg fed; geo mean (GeoCV%); read-out: t1/2 (converted)
readout.label: half-life (min)
A number alone suffices; assume min.

## Task # lookup: half-life of [O-][n+]1cccc(-c2nc3c(Cl)cccc3cc2[C@@H](Nc2ncnc3cccnc23)C(F)(F)F)c1
## Result 1060

* * *

experiment: Study-1 Part-A single ascending dose pharmacokinetics (plasma and urine); format: in vivo, human; details: human, plasma, oral, 10 mg, Study-1 Part-A, single dose 10 mg fasted; geo mean (GeoCV%)
readout.label: Cmax (ng/mL)
Return type: number; implicit unit ng/mL.

## Task Entry [O-][n+]1cccc(-c2nc3c(Cl)cccc3cc2[C@@H](Nc2ncnc3cccnc23)C(F)(F)F)c1 : reported Cmax = ?
## Result 279

* * *

test: Study-1 Part-A single ascending dose pharmacokinetics (plasma and urine); type: in vivo, human; settings: human, plasma, oral, 15 mg, Study-1 Part-A, single dose 15 mg fasted; geo mean (GeoCV%)
readout.label: Cmax (ng/mL)
The reply should contain only the number, in ng/mL.

## Task Bench note: what Cmax did [O-][n+]1cccc(-c2nc3c(Cl)cccc3cc2[C@@H](Nc2ncnc3cccnc23)C(F)(F)F)c1 show?
## Result 313

* * *

experiment: Study-2 single-dose pharmacokinetics (plasma); type: in vivo, human; settings: human, plasma, oral; Study-2 single dose, 45 mg QD cohort; median (range); read-out: tmax
readout.label: Tmax (h)
Give just the number in h; leave the unit off.

## Task Returns the measured Tmax for the input compound. Input: [O-][n+]1cccc(-c2nc3c(Cl)cccc3cc2[C@@H](Nc2ncnc3cccnc23)C(F)(F)F)c1 [Seletalisib, seletalisib]
## Result 4

* * *

assay: Study-1 Part-A single ascending dose pharmacokinetics (plasma and urine); format: in vivo, human; settings: human, plasma, oral, 15 mg, Study-1 Part-A, single dose 15 mg fasted; geo mean (GeoCV%); read-out: Vz/F
readout.label: Vd/F (L)
Return type: number; implicit unit L.

## Task What does the data say about its Vd/F? Entry: [O-][n+]1cccc(-c2nc3c(Cl)cccc3cc2[C@@H](Nc2ncnc3cccnc23)C(F)(F)F)c1
## Result 58.7
